So I've got a bunch of compounds here, and I need their melting point values.
All answers are understood in °C, so give the number only.

Problem: I am curious: what melting point value has been reported for O=[N+]([O-])c1ccc(Sc2ccccc2)cc1 ?
Solution: 56

Problem: Bench note: what melting point did CCCCCC(=O)CC(C)=O show?
Solution: -18

Problem: Which melting point is listed for N[C@@H](CS)C(=O)O ?
Solution: 240

Problem: Can you look up the measured melting point of C#CC1(O)C=CC2C3CCC4=CC(=O)CCC4C3CCC21CC (centres undefined) for me?
Solution: 198

Problem: Return reported melting point; argument: CCN(CC)CC#CCOC(=O)C(O)(c1ccccc1)C1CCCCC1 (centres undefined)
Solution: 130

Problem: Please look up its melting point: CCCCCOC(C)=O
Solution: -70.8

Problem: What does the data say about its melting point? Entry: CC(C)OC(=O)C1(S(=O)(=O)c2ccc([N+](=O)[O-])cc2)CCCCCC1
Solution: 83.5

Problem: Requested read-out: melting point. Entry: O=[N+]([O-])c1ccccc1/C=C/c1ccccc1
Solution: 73

Problem: I'd like to know its melting point. The compound in question is NCCCCCCCCCCCCN
Solution: 70

Problem: Which value of melting point has been reported for CCCCc1ccccc1O in the records?
Solution: -20

Problem: Find the recorded melting point belonging to C=C(C)C1CCC(C)CC1O (centres undefined) and report it.
Solution: 78

Problem: Value lookup for melting point; key = CC(=O)NC(C)=O
Solution: 79

Problem: Data request, read-out melting point, for Oc1ccc(C=Cc2cc(O)cc(O)c2)cc1
Solution: 254

Problem: Tell me the measured melting point of COc1ccc(-c2nnc3n2NC(c2ccccc2OC)S3)cc1 (centres undefined) , please.
Solution: 166

Problem: Give the measured melting point of COc1ccc(CCC(=O)O)cc1 .
Solution: 104

Problem: Find the recorded melting point belonging to CCN(C(=O)n1nnn(-c2ccccc2Cl)c1=O)C1CCCCC1 and report it.
Solution: 79

Problem: Look up melting point for this compound: O=C(C(=O)c1ccc2ccccc2c1)c1ccccc1
Solution: 87

Problem: Which value of melting point has been reported for ClC1(c2ccccc2)Cc2ccccc21 (centres undefined) in the records?
Solution: 60

Problem: # melting point lookup, item O=c1[nH][nH]c(=O)[nH]1
Solution: 250

Problem: Consider the compound O=C(Cn1ccnc1[N+](=O)[O-])NCc1ccccc1 and give its measured melting point.
Solution: 189

Problem: Dear colleague, I am looking for the recorded melting point of the following compound: CCCCCCCCOC=O
Solution: -39.1

Problem: I am curious: what melting point value has been reported for Cc1cc(C#N)ccc1N ?
Solution: 94

Problem: // melting point lookup, key: COc1ccccc1NC(=O)c1cncc(Cl)n1
Solution: 72

Problem: Please look up its melting point: O=[N+]([O-])c1ccc(Br)c(Cl)c1
Solution: 61

Problem: Look at this compound and give its reported melting point. NC(=O)C=CC(=O)O
Solution: 172

Problem: Look at this compound and give its reported melting point. Cc1ccccc1NC=O
Solution: 62

Problem: Query (compound): C=C(C)CN(CC)c1c([N+](=O)[O-])cc(C(F)(F)F)cc1[N+](=O)[O-] ; field requested: melting point
Solution: 55.5

Problem: What value of melting point has been reported for the following compound? OC1CCCCCCC1
Solution: 25.1

Problem: # get_value(readout='melting point', item= CC(Br)C(C)Br (centres undefined) )
Solution: -24

Problem: Need melting point, item C=Cc1ccc(C=C)cc1
Solution: 31

Problem: Quick check: melting point of CC(=O)Oc1cccc(C(N)=O)c1 ?
Solution: 140

Recorded values, source a melting point compilation (Tetko et al.).
